Catalogue of compounds with associated z-score
- experimental-protocol: CREB reporter modulators under forskolin, primary screen, cell-based, PC12, CRE-LacZ reporter, forskolin-stimulated (AID 1146);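 also: PC12 cells with 6xCRE LacZ reporter stimulated by forskolin 10 µM; beta-galactosidase reporter signal reflecting CREB driven transcription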
- experimental-parameters: luminescence, 4.5 h, higher = more signal, called active from +8 up or from −8 down
Give the figure only, with no unit attached.

Example cases with answers are listed next.
COC(=O)[C@H](Cc1ccc(O)cc1)N1CC2=CCCC=C[C@@H]2[C@H]1[C@H](O)Cc1ccccc1 ... 1.24
CC(C)CNC(=O)[C@@]1(C)c2ccccc2C(=O)N(Cc2cc(F)cc(C(F)(F)F)c2)[C@H]1c1ccc(CO)cc1 ... 0.13
NC(=O)NCC#Cc1ccc2c(c1)[C@]1(C(=O)N2)[C@H](C(=O)N2CCCCCCC2)[C@H]2C(=O)O[C@H](c3ccccc3)[C@H](c3ccccc3)N2[C@@H]1c1ccc(O)cc1 ... -0.745

Could you now look at the following compound, please?
Exercise: Complete the entry with z-score for C=C(COC)/C(=C/C[C@H](OC(=O)c1ccncc1)c1ccc(OCCO)cc1)c1cc(C(=O)OC)ccc1OC
Solution: 0.946

====

- experimental-protocol: basal RPMI8226 viability, no added stimulus, profiling panel, cell-based, calcein-AM fluorescence, 48 h, PK04 Diversity Set (AID 1166);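 also: cells grown under basal conditions without added stimulus; test concentration not given here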
- experimental-parameters: RPMI8226 myeloma viability, higher = more signal
value-type: z-score
Just the number.

Previously resolved entries follow.
CCN(CC)c1ccc(N2CC=CC34O[C@@H]5C=CCOC(=O)[C@@H]5[C@H]3C(=O)N(CCCO)[C@@H]4C2=O)cc1 (some centres undefined) ... 0.28
CCCC=C(CCC)[C@@H](NC(=O)c1ccccc1)c1ccc(C(=O)OC)cc1 ... -1.08
C=CC[C@@]12N=C(c3ccc(OCCCO)cc3)O[C@@H]1c1ccccc1N(Cc1ccccc1)C2=O ... -4.23

Then this compound:
Exercise: Supply measured z-score of COCCCNC(=O)[C@@H]1c2ccccc2C(=O)N(Cc2cc(C(F)(F)F)cc(C(F)(F)F)c2)[C@H]1c1ccc(CO)cc1 in your reply.
Solution: -1.74

====

- tested-system: Fibroblast growth factor 2 (Homo sapiens)
- experimental-protocol: FGF2 binders on small-molecule microarrays, primary screen, biochemical, small-molecule microarray, 635/667 nm fluorescence (AID 1133)
- experimental-parameters: small-molecule microarray binding, FGF2, fluorescence 635/667; higher = more signal
Parameter composite z-score: see the listing below.
Write no unit; give the number alone.

// solved cases for composite z-score follow
C=CCC(OC(C)=O)[C@@H]1[C@@H](N(Cc2ccc(-c3ccccc3)cc2)C(=O)c2cccc3ccccc23)c2cc(OCCCO)ccc2N1C(=O)c1ccc2ccccc2c1 (stereo not given in full) ... -0.198
C=C(CCCC)C(=O)CC[C@H](OC(=O)c1cccnc1)c1ccc(CO)o1 ... 1.27
COc1cc2c(cc1O)C(C1CC1)N(Cc1ccc([N+](=O)[O-])o1)CC2 (stereo not given) ... -0.0629
CCCCNC(=O)c1ccc(C#C[Si](C)(C)C)c(OC(C)=O)c1 ... 0.326
C=CCC(OC(C)=O)[C@@H]1[C@@H](N(Cc2cc3ccccc3o2)C(=O)c2ccc(-c3ccccc3)cc2)c2cc(OCCCO)ccc2N1C(=O)c1ccc2ccccc2n1 (stereo not given in full) ... -0.171
C=CC[C@@]1(C(=O)O)N=C(c2ccc(OCCCO)cc2)O[C@@H]1c1ccccc1CN=[N+]=[N-] ... 0.381

Exercise: Quick one: give measured composite z-score for C[C@]1(C(=O)NCC(F)(F)F)c2ccccc2C(=O)N(Cc2ccc(OC(F)(F)F)cc2)[C@H]1c1ccc(CO)cc1
Solution: 0.358

Exercise: For the molecule CO[C@H]1O[C@H](CO)[C@@H](OC(=O)Nc2ccc(C(F)(F)F)cc2)[C@H](OC(=O)Nc2ccccc2-c2ccccc2)[C@H]1OC(=O)Nc1ccccc1-c1ccccc1 , report composite z-score.
Solution: 0.686

Exercise: For CCCC[C@H]1OB(O)C[C@H]2C1=C(COC)C[C@H]1C(=O)C=CC(=O)[C@H]12 , write its composite z-score.
Solution: 0.32

====

# z-score per entry
- tested-system: NADPH oxidase 4 (Homo sapiens) (UniProt Q9NPH5)
- Sequence (Q9NPH5 whole entry, looked up): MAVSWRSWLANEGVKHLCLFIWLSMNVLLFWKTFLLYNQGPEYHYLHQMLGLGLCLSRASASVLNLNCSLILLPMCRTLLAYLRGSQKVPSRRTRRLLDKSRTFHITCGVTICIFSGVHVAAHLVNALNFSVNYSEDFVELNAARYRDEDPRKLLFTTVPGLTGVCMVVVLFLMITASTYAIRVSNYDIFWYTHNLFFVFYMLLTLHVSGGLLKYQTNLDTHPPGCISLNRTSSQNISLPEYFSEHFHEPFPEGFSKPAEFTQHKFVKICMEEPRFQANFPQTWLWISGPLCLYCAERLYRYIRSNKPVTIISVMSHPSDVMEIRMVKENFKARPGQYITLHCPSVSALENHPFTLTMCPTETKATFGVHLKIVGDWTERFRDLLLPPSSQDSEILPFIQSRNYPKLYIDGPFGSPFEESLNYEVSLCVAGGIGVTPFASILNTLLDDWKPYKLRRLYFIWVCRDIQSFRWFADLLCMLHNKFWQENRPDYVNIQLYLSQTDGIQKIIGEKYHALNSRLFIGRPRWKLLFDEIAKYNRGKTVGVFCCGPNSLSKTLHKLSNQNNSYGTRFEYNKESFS
- experimental-protocol: NOX4-dependent H2O2 signal modulators, primary screen, NOX inhibitor project, cell-based, HEK293-NOX4, tetracycline-induced, Amplex Red fluorescence (AID 1160)
- experimental-parameters: 45 min, higher = more signal, called active from +8 up or from −8 down
Give only the figure.

CC(C)(C)OC(=O)CC[C@]1(C(=O)N2CCOCC2)N=C(c2ccc(OCCCO)cc2)O[C@H]1c1ccccc1CN=[N+]=[N-] ... 0.181
COc1cccc(C[C@H]2C[C@@H](CO[Si](C(C)C)(C(C)C)C(C)C)N3C(=O)[C@@]4(C(C)=O)O[C@@]23[C@@H]2C(=O)N(C)C(=O)[C@@H]24)c1 ... 0.746
COc1ccc(CC[C@H](O)c2cccc(OCC(=O)OC(C)(C)C)c2)cc1 ... -0.941

Proceeding to the next compound to report its z-score.
Exercise: Using the record for CC(c1ccccc1)C(O)C1C=CC2C(=O)N(c3ccccc3)C(=O)C2N1Nc1ccc(C#N)cc1 (centres undefined) , state its measured z-score.
Solution: -4.04

====

- tested-system: E3 ubiquitin-protein ligase XIAP (Homo sapiens)
- experimental-protocol: XIAP binders, primary screen, biophysical, small-molecule microarray, fluorescence 635 nm (AID 1181);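 also: score merges 667 nm emission and signal to noise over triplicate slides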
- experimental-parameters: small-molecule microarray binding, higher = more signal
Parameter: composite z-score. Scope: all listed entries.
Simply state the number, no unit and no words.

Exercise: Answer with the recorded composite z-score for the compound listed here: Cc1ccc(F)cc1S(=O)(=O)N[C@@H]1CCN(Cc2ccc3[nH]ccc3c2)C1
Solution: -0.144

Exercise: Provide only the value of recorded composite z-score for C=CCC(OC(C)=O)[C@@H]1[C@@H](N(Cc2cc3ccccc3o2)C(=O)c2ccc(-c3ccccc3)cc2)c2cc(OCCCO)ccc2N1C(=O)c1ccc2ccccc2n1 (stereo partly drawn)
Solution: -0.0818

Exercise: Fill in composite z-score for record C=C(C(=O)CC[C@@H](OC(C)=O)c1cccc(OCCO)c1)C(C)C
Solution: 0.686

Exercise: Please indicate composite z-score recorded for CC(C)C(=C=CC[C@@H](O)c1cccc(OCCO)c1)CCO
Solution: -0.127

Exercise: Return value of composite z-score for input O=C1O[C@H](c2ccccc2)[C@H](c2ccccc2)N2[C@H]1[C@@H](C(=O)N1CCN(c3ncccn3)CC1)[C@]1(C(=O)Nc3ccccc31)[C@H]2c1ccc(O)cc1 , no commentary.
Solution: -0.13

Exercise: Please list composite z-score recorded for the compound CCCC[C@@H](O)C1=C(COC)Cn2c(=O)n(-c3ccccc3)c(=O)n2[C@H]1CO
Solution: -0.189

Exercise: Answer with the recorded composite z-score for the compound listed here: CN1C(=O)C2C=CC(C(O)c3ccc(-c4ccccc4)s3)N(Nc3ccccc3)C2C1=O (stereo not drawn)
Solution: 0.148

Exercise: Return the recorded composite z-score value; entry: CC(C)CNC(=O)[C@@H]1c2ccccc2C(=O)N(CC23CC4CC(CC(C4)C2)C3)[C@H]1c1ccc(CO)cc1
Solution: -0.13

====

- tested-system: Concanavalin-A (Canavalia ensiformis) (UniProt P02866)
- Sequence (P02866 whole entry, looked up): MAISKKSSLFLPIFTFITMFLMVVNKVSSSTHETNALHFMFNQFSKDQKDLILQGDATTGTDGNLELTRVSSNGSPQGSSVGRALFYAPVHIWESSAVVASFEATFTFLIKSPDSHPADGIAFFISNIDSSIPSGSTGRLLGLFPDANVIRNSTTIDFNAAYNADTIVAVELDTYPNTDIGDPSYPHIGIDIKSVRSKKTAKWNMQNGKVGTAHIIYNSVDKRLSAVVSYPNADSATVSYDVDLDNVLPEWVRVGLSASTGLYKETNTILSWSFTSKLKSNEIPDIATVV
- experimental-protocol: ConA small-molecule binders, primary screen, artefact control for SMM control protein annotation, biochemical, small-molecule microarray, Alexa647 label, 635 nm (AID 1127);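 also: z combines 667 nm emission intensity with signal-to-noise across three replicate slides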
- experimental-parameters: ConA-A647 binding fluorescence, higher = more signal
Label scheme for composite z-score: lower than 0.8 is No, 0.8 and above is Yes.

Answered cases to consult:
NCCCC[C@@H]1NC(=O)[C@H]2C[C@@H](C(=O)NCc3ccc(F)cc3)[C@@H](c3ccc(O)cc3)N2C1=O ... Yes
CN1C(=O)[C@]2(CCS(=O)(=O)c3ccccc3)N=C(c3ccc(OCCCO)cc3)O[C@@H]2c2ccccc21 ... Yes
C[C@]1(C(=O)NCC(F)(F)F)c2ccccc2C(=O)N(Cc2ccc(OC(F)(F)F)cc2)[C@H]1c1ccc(CO)cc1 ... No
COCCCNC(=O)[C@@H]1c2ccccc2C(=O)N(C2CCCCC2)[C@H]1c1ccc(CO)cc1 ... No
C=CC[C@]1(C(=O)NCc2ccccc2)COC(c2ccc(OCCCO)cc2)=N1 ... No
CN1C(=O)C2C(C1=O)C1C=C(c3ccc(CO)cc3)C2C(c2cccs2)N1C (centres undefined) ... Yes

Exercise: Evaluate CN(C)CCCC[C@@H]1NC(=O)[C@H]2C[C@@H](C(=O)O)[C@@H](c3cccc(OCCO)c3)N2C1=O : composite z-score at minimum 0.8?
Solution: Yes

Exercise: Say whether Cc1ccc(S[C@]2(C(=O)NCCCN(C)C)CC(=O)N(Cc3ccccc3Cl)[C@@H]2c2ccc(CO)cc2I)cc1 shows composite z-score of 0.8 or more.
Solution: No

====

- experimental-protocol: PSAC antagonists in infected red cells, primary screen, cell-based, P. falciparum Indochina, OD700, 1 h (AID 1154)
- experimental-parameters: P. falciparum Indochina infected RBC osmotic lysis, higher = more signal, called active from +8 up or from −8 down
value-type: z-score
Simply state the number, no unit and no words.

Take a look at these entries with their results.
COCCOC(=O)N1C(=O)[C@@]2(c3cc(C#CCNC(N)=O)ccc31)[C@H](C(=O)NC[C@H](O)c1ccccc1)[C@H]1C(=O)O[C@H](c3ccccc3)[C@H](c3ccccc3)N1[C@@H]2c1ccc(OCCO)cc1 ... 2.83
CN(C)CCCC[C@@H]1NC(=O)[C@@H]2C[C@H](C(=O)NCCCCCCNC(=O)CS)[C@H](c3cccc(OCCO)c3)N2C1=O ... 3.24
C=CC[C@]1(C(=O)NCCCOC)N=C(c2ccc(OCCCO)cc2)O[C@H]1c1ccccc1 ... 12.3

Exercise: Report z-score for COc1cccc(OC)c1C(=O)O[C@H]1[C@@H]2OC(=O)[C@H](Cc3cccc(Br)c3)C/C=C/C[C@@H](Cc3cccc(Br)c3)C(=O)O[C@H]2[C@@H](OC)O[C@@H]1CO
Solution: 3.18

Exercise: Report z-score for O=c1cccc(-c2ccccc2C(F)(F)F)o1
Solution: 0.168
